The values you see were collected from paper PMC4884984.

test system: hypoxia response element-beta-lactamase (HRE–bla); assay: HRE-bla reporter gene assay in ME-180 cells; type: cell-based, human; conditions: Homo sapiens, ME-180; Table S7; confirmatory screen; read-out: HRE–bla confirmatory Efficacy
Assignment: determine reported Emax for the given compounds.
Response body: numeric value in %, unit text excluded.

Entry CCOC(=O)C1(c2ccccc2)CCN(CCC(C#N)(c2ccccc2)c2ccccc2)CC1 [Diphenoxylate] has what Emax? 60

Entry CC[C@@]1(O)C(=O)OCc2c1cc1n(c2=O)Cc2cc3ccccc3nc2-1 has what Emax? 84

Entry Oc1cccc(-c2nc(N3CCOCC3)c3oc4ncccc4c3n2)c1 has what Emax? 62
